# Tested on: Puccinia triticina
# experimental protocol: Fungicidal activity: Wheat Brown Rust (PUCCRT)
# Format: in vivo
# experimental conditions: 24 h, High Volume (100 ppm), 1 Day Protectant, read-out: PUCCRT 1 DP disease control
Below is a list of entries, each paired with its recorded pest or weed control at 100 µg/mL value.

Use these answered entries as a reference point.
chemical smiles	test target	assay result
CCCC[C@@H]1[C@@H](Cc2ccccc2)COC[C@H](NC(=O)c2nccc(OC)c2OC(C)=O)C(=O)O[C@H]1C	Puccinia triticina	> 70%
CCCC[C@@H]1[C@@H](Cc2ccc(C(F)(F)F)cc2)COC[C@H](NC(=O)c2nccc(OC)c2O)C(=O)O[C@H]1C	Puccinia triticina	< 70%
COc1ccnc(C(=O)N[C@H]2COC[C@H](Cc3ccc(C(F)(F)F)cc3)[C@@H](Cc3ccc(OC(F)(F)F)cc3)[C@H](C)OC2=O)c1O	Puccinia triticina	< 70%
COc1ccnc(C(=O)N[C@H]2COC[C@H](Cc3ccccc3)[C@@H](CCc3ccccc3)[C@H](C)OC2=O)c1O	Puccinia triticina	> 70%
COc1ccnc(C(=O)N[C@H]2COC[C@H](CCC(C)C)[C@@H](Cc3ccccc3)[C@H](C)OC2=O)c1O	Puccinia triticina	> 70%
COc1ccnc(C(=O)N[C@H]2COC[C@H](Cc3ccc(C(F)(F)F)cc3)[C@@H](Cc3ccccc3)[C@H](C)OC2=O)c1O	Puccinia triticina	> 70%

Look up pest or weed control at 100 µg/mL for this compound: `COc1ccnc(C(=O)N[C@H]2COC[C@H](CCc3ccccc3)[C@@H](CCc3ccccc3)[C@H](C)OC2=O)c1O`
> 70%

Which measured pest or weed control at 100 µg/mL value corresponds to `COc1ccnc(C(=O)N[C@H]2COC[C@H](CCC(C)C)[C@@H](CCC(C)C)[C@H](C)OC2=O)c1O` ?
> 70%

# get_value(readout='pest or weed control at 100 µg/mL', item= `COc1ccnc(C(=O)N[C@H]2COC[C@H](CCC(C)C)[C@@H](CCc3ccccc3)[C@H](C)OC2=O)c1O` )
> 70%

What value of pest or weed control at 100 µg/mL has been recorded for this entry: `CCC[C@H]1COC[C@H](NC(=O)c2nccc(OC)c2O)C(=O)O[C@@H](C)[C@@H]1Cc1ccc(F)cc1`
> 70%

Query: pest or weed control at 100 µg/mL; subject: `CCCC[C@@H]1[C@@H](Cc2ccccc2)COC[C@H](NC(=O)c2nccc(OC)c2OCOC(=O)C(C)C)C(=O)O[C@H]1C`
> 70%

Which pest or weed control at 100 µg/mL reading was recorded for the compound `COc1ccnc(C(=O)N[C@H]2COC[C@H](CCc3ccccc3)[C@@H](CCc3ccccc3)[C@H](C)OC2=O)c1OCOC(C)=O` ?
> 70%

Name the reported pest or weed control at 100 µg/mL value associated with the compound `COc1ccnc(C(=O)N[C@H]2COC[C@H](Cc3ccc(C(F)(F)F)cc3)[C@@H](CC(C)C)[C@H](C)OC2=O)c1O`
> 70%
